Molecular target: T1, Myo5, Q04439
T1 sequence (Q04439 1072-1160, looked up): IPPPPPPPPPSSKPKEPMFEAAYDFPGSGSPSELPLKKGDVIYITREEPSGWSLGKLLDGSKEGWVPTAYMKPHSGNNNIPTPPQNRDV
Test: SPOT array
Settings: median of control spots 471
Parameter Measured: SPOT intensity

            binder  numeric_result
0  APERAVPILPPRNNV               0
1  APPPPPRRATPEKKP              14
2  FPPKRKPLLRPQRSD               0
3  TPEIPPPLPPKIMVH              87
